- Tested on: HIV-1 III B virus
- test_name: Anti-HIV activity assay (P24 antigen in MT-4 cells)
- Format: cell-based
- stated_conditions: Human immunodeficiency virus 1, MT4, 96 h, MT-4 cells, HIV-1 III B 100TCID50, 96 h, P24 antigen; read-out: HIV IC50
readout_name: log10 of IC50 (log10 of the value in µg/mL)

{"compound": "COc1cc(CCc2ccccc2)cc(O)c1CC=C(C)C [Compound 10v]", "log10 of IC50": 0.13}
{"compound": "COc1cc(/C=C/c2ccccc2)c(C(=O)O)c(OC(=N)N)c1CC=C(C)C [Compound 27b]", "log10 of IC50": 0.69}
{"compound": "COc1cc(/C=C/c2ccccc2)c(C(=O)NC(=N)N)c(O)c1CC=C(C)C [Compound 23b]", "log10 of IC50": 0.59}
{"compound": "COc1cc(/C=C/c2cccs2)cc(O)c1CC=C(C)C [Compound 10j]", "log10 of IC50": -0.18}
{"compound": "COc1cc(/C=C/c2ccccc2)c(C(=O)O)c(OC(C)=O)c1CC=C(C)C [Compound 24h]", "log10 of IC50": 0.12}
{"compound": "COc1cc(/C=C/c2ccccc2)cc(OCC2CNCCN2)c1CC=C(C)C (centres unmarked) [Compound 26f]", "log10 of IC50": 0.21}
{"compound": "COC(=O)c1c(/C=C/c2ccccc2)cc(OC)c(C/C=C(\\C)CCC=C(C)C)c1O", "log10 of IC50": 0.47}
{"compound": "COC(=O)c1c(/C=C/c2ccc(OC(C)=O)cc2)cc(OC)c(CC=C(C)C)c1O", "log10 of IC50": 0.32}
{"compound": "COc1cc(/C=C/c2ccccc2)c(C(=O)Nc2ccc(Cl)cc2)c(O)c1CC=C(C)C", "log10 of IC50": 0.53}
{"compound": "COC(=O)c1c(/C=C/c2cccc(OC)n2)cc(OC)c(CC=C(C)C)c1O", "log10 of IC50": 0.83}
{"compound": "COc1cc(/C=C/C=C/c2ccccc2)c(C(=O)O)c(O)c1CC=C(C)C", "log10 of IC50": 0.03}
{"compound": "COc1cc(CCc2ccccc2)cc(O)c1CCC(C)C [Compound 10u, 2-isopentyl-3-methoxy-5-phenethyl phenol]", "log10 of IC50": 0.81}
{"compound": "COc1cc(/C=C/C2CCCCC2)c(C(=O)O)c(O)c1CC=C(C)C", "log10 of IC50": 0.03}
{"compound": "COC(=O)c1c(/C=C/c2ccccc2)cc(OC)c(CC=C(C)C)c1OC(=O)CN(C)C [Compound 24m]", "log10 of IC50": 0.41}
{"compound": "COc1cc(/C=C/c2ccccn2)c(C(=O)O)c(O)c1CC=C(C)C", "log10 of IC50": 0.03}
{"compound": "COC(=O)c1c(O)cc(OC)c(CC=C(C)C)c1/C=C/c1ccccc1", "log10 of IC50": -0.47}
{"compound": "COc1cc(/C=C/c2cc(OC)c(OC)c(OC)c2)c(C(=O)O)c(O)c1CC=C(C)C", "log10 of IC50": -0.80}

###

- Test system: Influenza A virus (hanfang359/95)
- test_name: Determination of anti-influenza virus activity (CPE in MDCK cells)
- Type: cell-based
- stated_conditions: Influenza A virus, MDCK, 36 h
Quick rule for you: IC50 under 2 µg/mL gets 1 (yes), anything else gets 0 (no).

{"compound": "COc1cc(/C=C/c2ccccc2)cc(OC(=N)N)c1CC=C(C)C [Compound 27c]", "qualitative_label": "1 (yes)"}
{"compound": "COC(=O)c1c(CCc2ccccc2)cc(OC)c(CC=C(C)C)c1O [Compound 36]", "qualitative_label": "0 (no)"}
{"compound": "COc1cc(/C=C/c2cc(OC)c(OC)c(OC)c2)cc(O)c1CC=C(C)C [Compound 10y]", "qualitative_label": "1 (yes)"}
{"compound": "COC(=O)c1c(O)c(CC=C(C)C)c(OC)c(Cl)c1/C=C/c1ccccc1 [Compound 12]", "qualitative_label": "0 (no)"}
{"compound": "COc1cc(/C=C/c2ccccc2C)c(C(=O)O)c(O)c1CC=C(C)C [Compound 1e]", "qualitative_label": "0 (no)"}
{"compound": "COc1ccnc(/C=C/c2cc(OC)c(CC=C(C)C)c(O)c2C(=O)O)c1 [Compound 1v]", "qualitative_label": "0 (no)"}
{"compound": "C/C(=C\\c1cc(O)cc(O)c1)c1cc(O)cc(O)c1 [Compound 21h]", "qualitative_label": "0 (no)"}

###

- Test system: Coxsackie virus B6
- test_name: Coxsackie virus activity assay (CPE in Vero cells)
- Type: cell-based
- stated_conditions: Vero, read-out: COX-B6 IC50, Vero cells, about 100TCID50, CPE, Reed-Muench
Quick rule for you: IC50 under 2 µg/mL gets t, anything else gets f.

{"compound": "COC(=O)c1c(/C=C/c2cccc(OC)n2)cc(OC)c(CC=C(C)C)c1O", "qualitative_label": "f"}
{"compound": "COC(=O)c1c(/C=C/c2ccc(OC)cc2)cc(OC)c(CC=C(C)C)c1O", "qualitative_label": "f"}
{"compound": "COc1cc(/C=C/c2ccccc2)c(C(=O)NC2CCNCC2)c(O)c1CC=C(C)C", "qualitative_label": "t"}
{"compound": "COc1cc(/C=C/c2ccccc2)cc(OC(=O)C(=O)O)c1CC=C(C)C [Compound 31c]", "qualitative_label": "t"}
{"compound": "COc1cccc(/C=C/c2cc(O)c(CC=C(C)C)c(OC)c2)n1 [10f′]", "qualitative_label": "f"}
{"compound": "COc1cc(/C=C/Cc2ccccc2)cc(O)c1CC=C(C)C [Compound 10k]", "qualitative_label": "f"}
{"compound": "COC(=O)c1c(/C=C/C2CCCCC2)cc(OC)c(CC=C(C)C)c1O", "qualitative_label": "f"}
{"compound": "COc1cc(/C=C/CCc2ccccc2)cc(O)c1CC=C(C)C [Compound 10l]", "qualitative_label": "f"}
{"compound": "COc1cc(/C=C/c2ccccc2)cc(O)c1C/C=C(\\C)CCC=C(C)C [Compound 10o]", "qualitative_label": "t"}

###

- System: Coxsackie virus B6
- test_name: Coxsackie virus activity assay (CPE in Vero cells)
- Type: cell-based
- stated_conditions: Vero, read-out: COX-B6 IC50, Vero cells, about 100TCID50, CPE, Reed-Muench
Listing of entries alongside the reported IC50.

{"molecule": "COc1cc(/C=C/CCc2ccccc2)c(C(=O)O)c(O)c1CC=C(C)C", "system_under_test": "Coxsackie virus B6", "relation_symbol": ">", "IC50 (µg/mL)": 2.06}
{"molecule": "COc1cccc(OC)c1/C=C/c1cc(O)c(CC=C(C)C)c(OC)c1 [Compound 10d]", "system_under_test": "Coxsackie virus B6", "relation_symbol": ">", "IC50 (µg/mL)": 2.05}
{"molecule": "COc1cc(/C=C/c2cccc(C)c2)cc(O)c1CC=C(C)C [Compound 10f]", "system_under_test": "Coxsackie virus B6", "relation_symbol": "=", "IC50 (µg/mL)": 1.26}
{"molecule": "Oc1cc(O)cc(/C=C/Cc2ccccc2)c1 [Compound 21b]", "system_under_test": "Coxsackie virus B6", "relation_symbol": "=", "IC50 (µg/mL)": 3.26}
{"molecule": "COc1cc(/C=C/c2ccccc2)c(C(=O)O)c(OC(=O)CN)c1CC=C(C)C [Compound 24b]", "system_under_test": "Coxsackie virus B6", "relation_symbol": "=", "IC50 (µg/mL)": 1.24}
{"molecule": "C=CCc1c(O)cc(/C=C/c2ccccc2)cc1OC [10h′, 2-allyl-3-methoxy-5-[(E)-styryl]phenol]", "system_under_test": "Coxsackie virus B6", "relation_symbol": "=", "IC50 (µg/mL)": 0.54}
{"molecule": "COc1cc(/C=C/C2CCCCC2)cc(O)c1CC=C(C)C [Compound 10p]", "system_under_test": "Coxsackie virus B6", "relation_symbol": ">", "IC50 (µg/mL)": 6.19}
{"molecule": "COc1ccc(/C=C/c2cc(O)c(CC=C(C)C)c(OC)c2)cc1 [Compound 10c]", "system_under_test": "Coxsackie virus B6", "relation_symbol": "=", "IC50 (µg/mL)": 2.35}
{"molecule": "C=CCc1c(OC)cc(/C=C/c2ccccc2)c(C(=O)OC)c1O", "system_under_test": "Coxsackie virus B6", "relation_symbol": "=", "IC50 (µg/mL)": 1.64}
{"molecule": "COc1cc(/C=C(\\C)c2ccccc2)c(C(=O)O)c(O)c1CC=C(C)C", "system_under_test": "Coxsackie virus B6", "relation_symbol": "=", "IC50 (µg/mL)": 6.25}
{"molecule": "NC(=O)c1ncn([C@@H]2O[C@H](CO)[C@@H](O)[C@H]2O)n1 [RBV, Ribavirin, reference compound]", "system_under_test": "Coxsackie virus B6", "relation_symbol": "=", "IC50 (µg/mL)": 412}
{"molecule": "COc1cc(/C=C/c2ccccc2)c(C(=O)O)c(OCN)c1CC=C(C)C [Compound 26b]", "system_under_test": "Coxsackie virus B6", "relation_symbol": "=", "IC50 (µg/mL)": 3.54}
{"molecule": "COc1cc(/C=C/c2ccc(F)cc2)c(C(=O)O)c(O)c1CC=C(C)C", "system_under_test": "Coxsackie virus B6", "relation_symbol": ">", "IC50 (µg/mL)": 0.69}
{"molecule": "CC/C=C/c1cc(OC)c(CC=C(C)C)c(O)c1C(=O)O", "system_under_test": "Coxsackie virus B6", "relation_symbol": "=", "IC50 (µg/mL)": 15.3}
{"molecule": "COc1cc(/C=C/c2ccccc2Cl)c(C(=O)O)c(O)c1CC=C(C)C", "system_under_test": "Coxsackie virus B6", "relation_symbol": ">", "IC50 (µg/mL)": 1.03}
{"molecule": "COC(=O)c1c(/C=C/c2ccccc2)cc(OC)c(CC=C(C)C)c1OCN [Compound 26a]", "system_under_test": "Coxsackie virus B6", "relation_symbol": "=", "IC50 (µg/mL)": 6.54}
{"molecule": "COC(=O)c1c(/C=C/c2ccccc2)cc(OC)c(CC=C(C)C)c1OC(=O)c1cnc[nH]1 [Compound 24p]", "system_under_test": "Coxsackie virus B6", "relation_symbol": "=", "IC50 (µg/mL)": 2.36}
{"molecule": "COc1cc(/C=C/c2cc(OC)c(OC)c(OC)c2)cc(O)c1CC=C(C)C [Compound 10y]", "system_under_test": "Coxsackie virus B6", "relation_symbol": "=", "IC50 (µg/mL)": 2.58}
